B1: DLC1 (parent)
chain: KRSWEEHVTHWMGQPFNSDDRNTA

Variants of: B1
Test: protein stability index of a GFP-peptide fusion (GPS, HEK-293T) (PSI 1-6); higher = more stable;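 note: lentivirally expressed fusions sorted by FACS into six bins by GFP to DsRed ratio, PSI derived from sequencing read proportions per bin multiplied by bin number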
Conditions: c terminus: a fixed tail appended
MEASUREMENT KIND: protein stability index
Simply state the number, no unit and no words.

Observe how each entry below is paired with its result.
{"SEQUENCE ENTRY": "GRSWEEHVTHWMGQPFNSDDRNTA [K1G]", "protein stability index": 3.21}
{"SEQUENCE ENTRY": "KRSWEEHVTHWMGQPFNSDDRNTG [A24G]", "protein stability index": 2.97}
{"SEQUENCE ENTRY": "KRSWEEHVTHWAGQPFNSDDRNTA [M12A]", "protein stability index": 2.44}
{"SEQUENCE ENTRY": "KRSWCEHVTHWMGQPFNSDDRNTA [E5C]", "protein stability index": 2.17}
{"SEQUENCE ENTRY": "KRSWEEHVTHWMGVPFNSDDRNTA [Q14V]", "protein stability index": 3.15}
{"SEQUENCE ENTRY": "KRSWEEHVTHEMGQPFNSDDRNTA [W11E]", "protein stability index": 1.57}

**Q:** Fill in: protein stability index of KRSWEEHVTHWMGQPFNSRDRNTA [D19R] is ___
**A:** 2.54

**Q:** // returns reported protein stability index for input KRSWEEHVTHWMGQPCNSDDRNTA [F16C]
**A:** 2.66

**Q:** So what does the record say about protein stability index for KRSWEEHVTHWMGQPFNSDDTNTA [R21T] ?
**A:** 3.08

**Q:** Quick one: protein stability index for KRSWEEHVTHWMGQPFNSDKRNTA [D20K] ?
**A:** 2.51

**Q:** Fill in: protein stability index of KRSWEEHVTHWMGQPFNSDDLNTA [R21L] is ___
**A:** 3.36

**Q:** Value lookup for protein stability index; key = KRSWEEHVTKWMGQPFNSDDRNTA [H10K]
**A:** 2.53

**Q:** Field request: protein stability index | item: KRSWEEHVTHWMGQWFNSDDRNTA [P15W]
**A:** 2.92

**Q:** protein stability index lookup needed for KRSWEEHVTHWMGQPFNSGDRNTA [D19G] , thanks.
**A:** 2.25
